Tested on: L1210 leukemia ip in BDF1 mice, survival T/C
Method description: NCI In Vivo Anticancer Drug Screen. Data for tumor model L1210 Leukemia (intraperitoneal) in B6D2F1 (BDF1) mice
Condition parameters: endpoint: mean survival time; dose: 100.0 mg/kg/injection; schedule: Q01DX001 (ip); vehicle: saline; higher = longer survival
Toxic doses and inconclusive results are not listed.
Outcome measure: T/C

[[record]]
compound = "O=C(CCc1ccccc1)Nc1ccccc1"
result = "106 % of control"

[[record]]
compound = "COc1ccc2c(c1)CCN(C1=C(C)C(=O)CC1)C2CC(=O)O (centres undefined)"
result = "104 % of control"

[[record]]
compound = "CC(=O)NC(C(=O)O)C(C)C (centres undefined)"
result = "97 % of control"

[[record]]
compound = "O=C1CSC2=NCCN12"
result = "99 % of control"

[[record]]
compound = "Cc1ccc(-n2cnc3c(=O)[nH]cnc32)cc1"
result = "98 % of control"

[[record]]
compound = "COC(=O)c1ccc(=O)n(C/C=C(\\C)CCC=C(C)C)c1"
result = "95 % of control"

[[record]]
compound = "Nc1ccc(SS(N)(=O)=O)cc1"
result = "98 % of control"

[[record]]
compound = "CC1(C)OC(=O)C2CCCCC21 (centres undefined)"
result = "97 % of control"

[[record]]
compound = "NC1=NC=NC(c2ccccc2)N1c1ccccc1F (centres undefined)"
result = "104 % of control"

[[record]]
compound = "CCOC1OC(CO)C(O)C(O)C1O (centres undefined)"
result = "102 % of control"

[[record]]
compound = "c1cnon1"
result = "102 % of control"

[[record]]
compound = "O=c1[nH]nc(SC2CCCCC2)c(=O)[nH]1"
result = "108 % of control"

[[record]]
compound = "CCOC(=O)C(C(=O)OCC)c1cccc(Cl)c1"
result = "109 % of control"

[[record]]
compound = "Nc1ccc(I)cc1C(=O)O"
result = "103 % of control"


* * *

System: L1210 leukemia ip in BDF1 mice, survival T/C
Method description: NCI In Vivo Anticancer Drug Screen. Data for tumor model L1210 Leukemia (intraperitoneal) in B6D2F1 (BDF1) mice
Condition parameters: endpoint: mean survival time; dose: 75.0 mg/kg/injection; schedule: Q01DX009 (ip); vehicle: saline; higher = longer survival
Inconclusive results and toxic doses are left out.
This section presents compounds with their documented T/C values.
Outcome measure: T/C

[[record]]
compound = "COc1ccc(Nc2cccc(Cl)c2)c(C(=O)O)c1"
result = "87 % of control"

[[record]]
compound = "Cc1ccc(S(=O)(=O)NC(CO)C(=O)O)cc1 (centres undefined)"
result = "98 % of control"

[[record]]
compound = "O=C(Nc1cc(Cl)ccc1Oc1cc(Cl)c(Cl)cc1S(=O)(=O)O)Nc1cc(Cl)ccc1Oc1cc(Cl)c(Cl)cc1S(=O)(=O)O"
result = "94 % of control"

[[record]]
compound = "Cc1ccc(SSc2ccc(C)cc2)cc1"
result = "108 % of control"


* * *

System: L1210 leukemia ip in BDF1 mice, survival T/C
Method description: NCI In Vivo Anticancer Drug Screen. Data for tumor model L1210 Leukemia (intraperitoneal) in B6D2F1 (BDF1) mice
Condition parameters: endpoint: mean survival time; dose: 400.0 mg/kg/injection; schedule: Q04DX003 (ip); vehicle: saline
Toxic doses and inconclusive results are not listed. No stated cut-off is given here; in the data, active means T/C of 150% or more; inactive means T/C below 125%.
Classes used: active, inactive

[[record]]
compound = "CC(O)COCCOCCO (stereo unspecified)"
target_or_system = "L1210 leukemia ip in BDF1 mice, survival T/C"
category = "inactive"

[[record]]
compound = "COc1ccc(CO/N=C2/CC(NOCc3ccc(OC)cc3)NC(=O)N2)cc1 (stereo unspecified)"
target_or_system = "L1210 leukemia ip in BDF1 mice, survival T/C"
category = "inactive"

[[record]]
compound = "CC(=O)OC1CCP(C)(=O)C1 (stereo unspecified)"
target_or_system = "L1210 leukemia ip in BDF1 mice, survival T/C"
category = "inactive"

[[record]]
compound = "NC(=NCCO)C(N)=NCCO"
target_or_system = "L1210 leukemia ip in BDF1 mice, survival T/C"
category = "inactive"

[[record]]
compound = "O=C1C2CCCCC2C(=O)N1O (stereo unspecified)"
target_or_system = "L1210 leukemia ip in BDF1 mice, survival T/C"
category = "inactive"

[[record]]
compound = "CCO/C=C(/C(=O)OCC)C(=O)C(OCC)OCC"
target_or_system = "L1210 leukemia ip in BDF1 mice, survival T/C"
category = "inactive"

[[record]]
compound = "CC(C)(C)NC(=O)NC1CCCCC1"
target_or_system = "L1210 leukemia ip in BDF1 mice, survival T/C"
category = "inactive"

[[record]]
compound = "COC(=O)C1C(O)C(C)C(O)OC1C(C)C(O)C(C)/C=C\\C=C(/C)C(=O)Nc1c(C)c(OC(C)=O)c2c(c1O)C(=O)C(C)=C1OCOC(/C(C)=C/C(C)=O)=C12 (stereo unspecified)"
target_or_system = "L1210 leukemia ip in BDF1 mice, survival T/C"
category = "inactive"

[[record]]
compound = "CC(C)NCC1CCCO1 (stereo unspecified)"
target_or_system = "L1210 leukemia ip in BDF1 mice, survival T/C"
category = "inactive"

[[record]]
compound = "CSCC(N)CO (stereo unspecified)"
target_or_system = "L1210 leukemia ip in BDF1 mice, survival T/C"
category = "inactive"

[[record]]
compound = "CC(=O)Oc1cccc2c1C(=O)c1ccccc1C2=O"
target_or_system = "L1210 leukemia ip in BDF1 mice, survival T/C"
category = "inactive"

[[record]]
compound = "C=CC[n+]1cccc(S(=O)(=O)[O-])c1"
target_or_system = "L1210 leukemia ip in BDF1 mice, survival T/C"
category = "inactive"

[[record]]
compound = "CCOC(=O)Cn1c(C)cnc1C"
target_or_system = "L1210 leukemia ip in BDF1 mice, survival T/C"
category = "inactive"

[[record]]
compound = "O=S(=O)(O)CCC(CO)(CO)CO"
target_or_system = "L1210 leukemia ip in BDF1 mice, survival T/C"
category = "inactive"

[[record]]
compound = "CCN1C(=O)CC2(CCN(C)CC2)C1=O"
target_or_system = "L1210 leukemia ip in BDF1 mice, survival T/C"
category = "inactive"

[[record]]
compound = "C[C@@H](CN1CC(=O)NC(=O)C1)N1CC(=O)NC(=O)C1"
target_or_system = "L1210 leukemia ip in BDF1 mice, survival T/C"
category = "active"

[[record]]
compound = "CC(C)(C)OB(OC(C)(C)C)OC(C)(C)C"
target_or_system = "L1210 leukemia ip in BDF1 mice, survival T/C"
category = "inactive"

[[record]]
compound = "COc1cc(/C=C(/NC(=O)c2ccccc2)C(=O)O)ccc1O"
target_or_system = "L1210 leukemia ip in BDF1 mice, survival T/C"
category = "inactive"

[[record]]
compound = "C#CC(C)(C)OCC(CCl)OC(N)=O (stereo unspecified)"
target_or_system = "L1210 leukemia ip in BDF1 mice, survival T/C"
category = "inactive"

[[record]]
compound = "C[S+](C)CCCN"
target_or_system = "L1210 leukemia ip in BDF1 mice, survival T/C"
category = "inactive"

[[record]]
compound = "N#CCC(=O)NCc1cnccn1"
target_or_system = "L1210 leukemia ip in BDF1 mice, survival T/C"
category = "inactive"

[[record]]
compound = "Cn1c(=O)c2c(ncn2CCO)n(C)c1=O (tested in a mixture with another compound)"
target_or_system = "L1210 leukemia ip in BDF1 mice, survival T/C"
category = "inactive"

[[record]]
compound = "CC(=O)Nc1ccc2c(c1)Cc1cc(NC=O)ccc1-2"
target_or_system = "L1210 leukemia ip in BDF1 mice, survival T/C"
category = "inactive"

[[record]]
compound = "COC(=O)Cc1cc(=O)c2ccccc2[nH]1"
target_or_system = "L1210 leukemia ip in BDF1 mice, survival T/C"
category = "inactive"

[[record]]
compound = "CC1(C(=O)O)CCC2(C)CCC3(C)C(=CC(=O)C4C5(C)CCC(OC6OC(C(=O)O)C(O)C(O)C6OC6OC(C(=O)O)C(O)C(O)C6O)C(C)(C)C5CCC43C)C2C1 (stereo unspecified)"
target_or_system = "L1210 leukemia ip in BDF1 mice, survival T/C"
category = "inactive"

[[record]]
compound = "C[N+]1(C)N=C([O-])C=C1c1ccccc1"
target_or_system = "L1210 leukemia ip in BDF1 mice, survival T/C"
category = "inactive"


* * *

Tested on: L1210 leukemia ip in BDF1 mice, survival T/C
Method description: NCI In Vivo Anticancer Drug Screen. Data for tumor model L1210 Leukemia (intraperitoneal) in B6D2F1 (BDF1) mice
Condition parameters: endpoint: mean survival time; dose: 200.0 mg/kg/injection; schedule: Q04DX003 (ip); vehicle: Klucel (hydroxypropylcellulose) (HPC); higher = longer survival
Toxic doses and inconclusive results are not listed.
Outcome measure: T/C

[[record]]
compound = "Cc1cccc(-n2cnc3c(=O)[nH]c(N)nc32)c1"
outcome_measure = "T/C"
result = "95 % of control"

[[record]]
compound = "CCOC(=O)CCC(NC(=O)c1ccc(I)cc1)C(=O)OCC (configuration not stated)"
outcome_measure = "T/C"
result = "96 % of control"

[[record]]
compound = "c1ccc(CNNCc2ccccc2)cc1"
outcome_measure = "T/C"
result = "94 % of control"

[[record]]
compound = "CCCCCCCCCCCCCCCC(=O)NNC(C)C"
outcome_measure = "T/C"
result = "89 % of control"

[[record]]
compound = "CC12CCC(C1)C(C)(C)C2C(N)=O (configuration not stated)"
outcome_measure = "T/C"
result = "93 % of control"

[[record]]
compound = "Cc1ccc(C(=O)CC(C(=O)c2ccccc2)c2ccccc2)cc1 (configuration not stated)"
outcome_measure = "T/C"
result = "104 % of control"

[[record]]
compound = "Cc1cc(C)c(NC(=O)NCCCl)cc1C"
outcome_measure = "T/C"
result = "89 % of control"

[[record]]
compound = "[N-]=C(CC(=O)c1ccccc1)c1ccccc1.[N-]=C(CC(=O)c1ccccc1)c1ccccc1.[Ni+2]"
outcome_measure = "T/C"
result = "93 % of control"

[[record]]
compound = "CN(C)c1ccc(C(=O)Oc2ccc([N+](=O)[O-])cc2)cc1"
outcome_measure = "T/C"
result = "98 % of control"

[[record]]
compound = "Cc1ccc(NC(=O)OCCCl)c([N+](=O)[O-])c1"
outcome_measure = "T/C"
result = "93 % of control"

[[record]]
compound = "O=C(N/N=C\\c1ccc2c(c1)OCO2)N/N=C/c1ccc2c(c1)OCO2"
outcome_measure = "T/C"
result = "100 % of control"

[[record]]
compound = "Cn1cc([N+](=O)[O-])c2ccccc2c1=O"
outcome_measure = "T/C"
result = "120 % of control"

